- TARGET_ENTITY: recombinant, N-terminally GST-tagged ATAD2 bromodomain amino acids 981-1108 (Homo sapiens, UniProt Q6PL18)
- Construct: ATAD2 bromodomain amino acids 981-1108
- Sequence (Q6PL18 981-1108): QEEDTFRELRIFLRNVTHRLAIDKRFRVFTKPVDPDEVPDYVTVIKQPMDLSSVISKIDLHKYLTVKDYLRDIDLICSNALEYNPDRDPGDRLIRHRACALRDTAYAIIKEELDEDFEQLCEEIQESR
- PROTOCOL_NOTES: TR-FRET assay: disruption of the interaction between ATAD2 and acetylated Histone H4 (Ac-H4) peptide
- CONDITION: inhibition of ATAD2/Ac-H4 complex formation; 10 nM ATAD2, 50 nM Ac-H4 peptide
OBSERVATION_TYPE: IC50 (nM)

Example entries and their recorded answers appear below.
Cc1ccc([C@@H](C)NCc2ccc(-c3ccc(Cl)c(C(=O)N[C@H](Cc4ccc(C#N)cc4)C(N)=O)c3)o2)cc1; 949
Cc1ccc([C@@H](C)NCc2ccc(-c3ccc(Cl)c(C(=O)N[C@@H](CNC[C@@H]4[C@H]5CNC[C@@H]45)Cc4ccc(C#N)cc4)c3)o2)cc1; 245
Cc1ccc([C@@H](C)NCc2ccc(-c3ccc(Cl)c(C(=O)N[C@@H](CCN4CCN(C)C[C@H]4C)Cc4ccc(C#N)cc4)c3)o2)cc1; 130
Cc1ccc([C@@H](C)NCc2ccc(-c3ccc(Cl)c(C(=O)N[C@H](Cc4ccc(C#N)cc4)CN(C)C)c3)o2)cc1; 598

I = CCN1CCC(NC[C@@H](Cc2ccc(C#N)cc2)NC(=O)c2cc(-c3ccc(CN[C@H](C)c4ccc(C)cc4)o3)ccc2Cl)CC1
II = Cc1ccc([C@@H](C)NCc2ccc(-c3cc(C(=O)N[C@@H](CO)Cc4ccc(C#N)cc4)ccc3C#N)o2)cc1
Qu. When I and II are compared, which has the higher number for IC50? Mark your answer with the label of the selected entry.
Ans. II
(II: 1400 nM, I: 332 nM)

Cited source: patent US10654818B2
